- METHOD_SUMMARY: qHTS for small molecules that induce genotoxicity in ELG1 expressing cells: Confirmatory Assay for Cherry-picked Compounds; also: nearly all actives have a fitted effect of over 35% in size; as to activation: % of control where 0% means no effect
- CONDITION_PARAMETERS: ELG1-luciferase reporter cells, luminescence, 16 h; series mostly up to 46.1 µM
Results filed as inconclusive are left out. Active and inactive are the calls of the source. Calls follow the shape of the dose curve; as a rule, active = well fitted activation curve with a large enough effect; inconclusive = small, poorly fitted or top-dose-only effect; inactive = no such curve, though single readings can be large or run the other way.
Possible outcomes: 1 = active, -1 = inactive

[
  {
    "COMPOUND": "O=c1cc(-c2ccccc2)oc2ccc(Br)cc12",
    "CATEGORY_LABEL": 1
  },
  {
    "COMPOUND": "CCOC(=O)c1cc(-c2cc(OC)c(OC)c(OC)c2)nc2c1c(=O)[nH]c(=O)n2Cc1ccccc1",
    "CATEGORY_LABEL": 1
  },
  {
    "COMPOUND": "Cc1ccnc(NC(=S)N2CCN(c3ccc(N)cc3)CC2)c1",
    "CATEGORY_LABEL": 1
  },
  {
    "COMPOUND": "Cc1cc(C(=O)COC(=O)C23CC4CC(CC(O)(C4)C2)C3)c(C)n1C",
    "CATEGORY_LABEL": 1
  },
  {
    "COMPOUND": "COc1ccc(-c2cc3cc(F)ccc3cn2)cc1",
    "CATEGORY_LABEL": 1
  },
  {
    "COMPOUND": "CC(=O)Oc1ccc(-c2nc(-c3ccccc3)no2)cc1",
    "CATEGORY_LABEL": 1
  },
  {
    "COMPOUND": "O=C(CSc1nnc(-c2ccc(O)cc2)o1)Nc1ccccc1",
    "CATEGORY_LABEL": 1
  },
  {
    "COMPOUND": "Cc1nc2cc(-c3ccccc3)nn2c(N)c1-c1ccccc1",
    "CATEGORY_LABEL": 1
  },
  {
    "COMPOUND": "CN(C)c1cccc(C(=O)NNC(=O)CN2C(=O)C3CC=CCC3C2=O)c1 (configuration not stated)",
    "CATEGORY_LABEL": 1
  },
  {
    "COMPOUND": "COc1cc(OC)cc(-c2cc3cc4c(cc3cn2)OCO4)c1",
    "CATEGORY_LABEL": 1
  },
  {
    "COMPOUND": "N#Cc1ccc(-c2ccc(-c3nc4ccccc4c(=O)[nH]3)o2)cc1",
    "CATEGORY_LABEL": -1
  },
  {
    "COMPOUND": "COc1cccc(NC(=O)COC(=O)c2sccc2C)c1",
    "CATEGORY_LABEL": 1
  },
  {
    "COMPOUND": "COc1cccc2oc(-c3ccccc3)cc(=O)c12",
    "CATEGORY_LABEL": 1
  },
  {
    "COMPOUND": "CN(C)c1ccc(/C=C/c2ccc3ccccc3[n+]2[O-])cc1",
    "CATEGORY_LABEL": 1
  },
  {
    "COMPOUND": "COc1ccc(S(=O)(=O)N2CCCCC2)cc1NC(=O)c1[nH]c(C)c(C(C)=O)c1C",
    "CATEGORY_LABEL": 1
  },
  {
    "COMPOUND": "Cn1cccc1C(=O)Nc1ccc(N2CCOCC2)cc1",
    "CATEGORY_LABEL": 1
  },
  {
    "COMPOUND": "CC(=NNC(=O)c1cccs1)c1ccc2c(c1)OCCO2",
    "CATEGORY_LABEL": 1
  },
  {
    "COMPOUND": "COc1cc(/C=C(\\C#N)C(=O)Nc2cccc(C(=O)O)c2)ccc1OCc1ccc(F)cc1",
    "CATEGORY_LABEL": 1
  },
  {
    "COMPOUND": "O=C1/C(=C/c2ccc(O)c(O)c2)Oc2ccccc21",
    "CATEGORY_LABEL": 1
  },
  {
    "COMPOUND": "CNC(=O)c1cc(-c2cccs2)on1",
    "CATEGORY_LABEL": -1
  },
  {
    "COMPOUND": "Cc1sc(NC(=O)c2ccco2)c(C(c2cccnc2)N2CCN(c3ccc(F)cc3)CC2)c1C (configuration not stated)",
    "CATEGORY_LABEL": -1
  },
  {
    "COMPOUND": "CCc1ccc(OCC(=O)Nc2ccc(-c3nc4ccccc4o3)c(O)c2)cc1",
    "CATEGORY_LABEL": 1
  },
  {
    "COMPOUND": "COc1ccc(/C=C2\\Oc3ccccc3C2=O)cc1",
    "CATEGORY_LABEL": 1
  },
  {
    "COMPOUND": "Cn1cccc1C(=O)OCC(=O)Nc1ccc2c(c1)OCCO2",
    "CATEGORY_LABEL": 1
  },
  {
    "COMPOUND": "CN(C)c1cccc(-c2nnc(N3CCC(C(N)=O)CC3)s2)c1",
    "CATEGORY_LABEL": 1
  },
  {
    "COMPOUND": "COc1ccccc1NC(=O)CSc1nnc(-c2ccccc2)o1",
    "CATEGORY_LABEL": 1
  },
  {
    "COMPOUND": "Cc1c(OCc2ccc([N+](=O)[O-])cc2)ccc2c3c(c(=O)oc12)CCC3",
    "CATEGORY_LABEL": 1
  },
  {
    "COMPOUND": "COc1ccc([C@H]2Cc3cc(O)cc(O)c3C(=O)O2)cc1O",
    "CATEGORY_LABEL": 1
  },
  {
    "COMPOUND": "O=C(CSc1ncnc2sccc12)N1CCCCC1",
    "CATEGORY_LABEL": 1
  },
  {
    "COMPOUND": "COC(=O)Nc1nc2ccc(C(=O)c3cccs3)cc2[nH]1",
    "CATEGORY_LABEL": 1
  },
  {
    "COMPOUND": "CN(C)c1ccc(N=Nc2ccc(/C=C/c3ccnc4ccccc34)cc2)cc1",
    "CATEGORY_LABEL": 1
  },
  {
    "COMPOUND": "CCn1c(=O)n(CC)c2cc(S(=O)(=O)N3CCC(c4ccccc4)CC3)ccc21",
    "CATEGORY_LABEL": -1
  },
  {
    "COMPOUND": "O=C(c1cc2ccccc2[nH]1)c1cc2cc(O)ccc2[nH]1",
    "CATEGORY_LABEL": 1
  },
  {
    "COMPOUND": "C(=C\\c1ccc2ccccc2n1)/c1ccc2ccccc2n1",
    "CATEGORY_LABEL": 1
  },
  {
    "COMPOUND": "Cc1cc(C)c(C#N)c(SCC(=O)Nc2cc(C)on2)n1",
    "CATEGORY_LABEL": 1
  },
  {
    "COMPOUND": "Nc1ccc2cccnc2c1",
    "CATEGORY_LABEL": 1
  },
  {
    "COMPOUND": "CC1CCC(NC(=O)CN2C(=O)NC(C)(C)C2=O)CC1 (configuration not stated)",
    "CATEGORY_LABEL": -1
  },
  {
    "COMPOUND": "Nc1ccccc1NC(=O)c1ccc(CNC(=O)OCc2cccnc2)cc1",
    "CATEGORY_LABEL": 1
  },
  {
    "COMPOUND": "Cc1ccccc1-c1nnc(SCC(=O)Nc2cccnc2Cl)o1",
    "CATEGORY_LABEL": 1
  },
  {
    "COMPOUND": "Cn1c2ccccc2c(=O)c2cc(NCCCN3CCOCC3)ccc21",
    "CATEGORY_LABEL": 1
  },
  {
    "COMPOUND": "CC(=O)c1c(C)[nH]c(C(=O)Nc2cccc(S(=O)(=O)N3CCCC3)c2)c1C",
    "CATEGORY_LABEL": 1
  },
  {
    "COMPOUND": "COc1ccc(-c2nnc(SC(C)C(=O)Nc3cccc(Cl)c3)o2)cc1 (configuration not stated)",
    "CATEGORY_LABEL": 1
  },
  {
    "COMPOUND": "Cc1cc(C(=O)COC(=O)C2=COCCO2)c(C)n1-c1ccccc1",
    "CATEGORY_LABEL": 1
  },
  {
    "COMPOUND": "O=C(COc1ccccc1Cl)Nc1ccc(-c2nc3ccccc3s2)cc1",
    "CATEGORY_LABEL": 1
  },
  {
    "COMPOUND": "Cc1cc(C(=O)COC(=O)c2cccnc2Cl)c(C)n1C",
    "CATEGORY_LABEL": 1
  },
  {
    "COMPOUND": "CCC1CCCCN1CCCNC(=O)c1ccc2nc(N3CCC(C)CC3)sc2c1 (configuration not stated)",
    "CATEGORY_LABEL": 1
  },
  {
    "COMPOUND": "CN(C)c1ccc(-c2cc3ccccc3c(=O)o2)cc1",
    "CATEGORY_LABEL": 1
  }
]
